Every entry's value here was drawn from ChEMBL document CHEMBL3822388.

- testedOn: Voltage-gated inwardly rectifying potassium channel KCNH2 (Homo sapiens)
- Sequence (Q12809 whole entry): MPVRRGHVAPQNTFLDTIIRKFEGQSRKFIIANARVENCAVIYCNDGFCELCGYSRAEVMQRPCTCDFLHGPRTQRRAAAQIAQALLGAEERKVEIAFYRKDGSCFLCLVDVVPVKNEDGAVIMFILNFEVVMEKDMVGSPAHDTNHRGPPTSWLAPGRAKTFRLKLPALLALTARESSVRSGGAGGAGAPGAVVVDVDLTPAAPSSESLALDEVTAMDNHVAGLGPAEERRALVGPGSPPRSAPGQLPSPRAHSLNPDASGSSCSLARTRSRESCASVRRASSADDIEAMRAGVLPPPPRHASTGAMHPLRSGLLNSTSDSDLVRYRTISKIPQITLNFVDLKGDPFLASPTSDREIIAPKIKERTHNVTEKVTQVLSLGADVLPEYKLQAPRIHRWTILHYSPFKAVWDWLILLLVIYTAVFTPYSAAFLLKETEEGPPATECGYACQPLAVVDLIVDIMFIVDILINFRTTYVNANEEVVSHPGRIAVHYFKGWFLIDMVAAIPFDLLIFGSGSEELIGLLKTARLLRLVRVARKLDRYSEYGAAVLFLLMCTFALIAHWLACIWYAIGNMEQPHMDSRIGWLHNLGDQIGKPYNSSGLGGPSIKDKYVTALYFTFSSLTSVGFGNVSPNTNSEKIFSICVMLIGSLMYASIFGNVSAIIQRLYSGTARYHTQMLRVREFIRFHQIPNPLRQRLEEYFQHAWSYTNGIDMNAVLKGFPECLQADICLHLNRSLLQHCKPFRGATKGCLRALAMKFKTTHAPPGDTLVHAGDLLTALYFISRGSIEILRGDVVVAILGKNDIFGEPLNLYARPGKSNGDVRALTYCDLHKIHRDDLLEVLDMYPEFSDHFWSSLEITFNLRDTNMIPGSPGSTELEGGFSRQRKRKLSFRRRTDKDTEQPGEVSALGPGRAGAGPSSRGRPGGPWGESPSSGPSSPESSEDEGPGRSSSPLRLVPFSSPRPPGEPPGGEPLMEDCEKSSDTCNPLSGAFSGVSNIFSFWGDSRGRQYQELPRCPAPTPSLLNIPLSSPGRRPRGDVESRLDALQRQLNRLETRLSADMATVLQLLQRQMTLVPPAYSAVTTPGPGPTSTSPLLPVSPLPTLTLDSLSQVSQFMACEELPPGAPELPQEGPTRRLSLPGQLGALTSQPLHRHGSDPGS
- protocolText: Inhibition of human ERG
- conditionDetails: read-out: IC50
propertyName: IC50

// Cc1cc(C2C=CN=CN2)c(C)s1.Cl (racemic) : IC50 value = > 25 µM

###

- testedOn: CYP1A (Homo sapiens, UniProt P04798+P05177)
- Sequence (P04798 whole entry): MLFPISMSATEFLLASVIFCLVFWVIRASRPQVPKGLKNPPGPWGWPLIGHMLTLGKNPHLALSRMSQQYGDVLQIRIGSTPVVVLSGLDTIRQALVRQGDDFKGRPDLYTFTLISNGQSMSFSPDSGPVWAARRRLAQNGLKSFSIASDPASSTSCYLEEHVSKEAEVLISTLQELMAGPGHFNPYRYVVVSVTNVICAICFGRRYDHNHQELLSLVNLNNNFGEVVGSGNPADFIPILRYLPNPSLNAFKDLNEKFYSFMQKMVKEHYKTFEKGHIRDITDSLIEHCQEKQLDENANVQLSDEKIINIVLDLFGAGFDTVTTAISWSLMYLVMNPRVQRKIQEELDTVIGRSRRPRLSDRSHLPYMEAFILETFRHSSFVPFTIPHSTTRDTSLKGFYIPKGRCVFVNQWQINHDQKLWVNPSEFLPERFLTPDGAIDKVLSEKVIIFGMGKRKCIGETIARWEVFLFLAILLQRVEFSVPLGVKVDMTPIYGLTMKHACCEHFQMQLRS
- Sequence (P05177 whole entry): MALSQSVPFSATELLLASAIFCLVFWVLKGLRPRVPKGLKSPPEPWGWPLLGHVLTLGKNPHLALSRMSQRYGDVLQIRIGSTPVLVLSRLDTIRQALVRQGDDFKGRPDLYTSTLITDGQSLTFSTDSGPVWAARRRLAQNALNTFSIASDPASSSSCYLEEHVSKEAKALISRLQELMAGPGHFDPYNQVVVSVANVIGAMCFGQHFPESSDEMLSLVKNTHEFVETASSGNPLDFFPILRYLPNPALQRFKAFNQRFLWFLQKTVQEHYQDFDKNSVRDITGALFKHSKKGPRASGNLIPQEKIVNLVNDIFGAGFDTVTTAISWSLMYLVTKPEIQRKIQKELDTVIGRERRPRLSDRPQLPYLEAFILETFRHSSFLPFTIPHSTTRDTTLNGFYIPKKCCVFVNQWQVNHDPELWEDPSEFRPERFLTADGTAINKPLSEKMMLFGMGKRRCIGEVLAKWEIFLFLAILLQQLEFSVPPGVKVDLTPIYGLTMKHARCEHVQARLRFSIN
- protocolText: Inhibition of CYP1A in human liver microsomes assessed as reduction in ethoxyresorufin o-deethylation by fluorescence assay
- conditionDetails: probe ethoxyresorufin (O-deethylation)
propertyName: IC50 (µM)
Write down the numeric answer in µM and omit the unit.

// Cc1sc2ccccc2c1[C@@H]1C=CN=CN1 : IC50 value = 6.9

###

- Tested on: Mus musculus
- protocolText: Antipsychotic activity in ip dosed mouse administered 15 mins prior to testing by SmartCube automated system based method
- Type: functional
- conditionDetails: Mus musculus, ip; read-out: MED
Recorded measurements of minimal effective dose, one per entry
Write down the numeric answer in mg/kg and omit the unit.

Solved cases (5 shown):
- compound: "Cc1sc2ccccc2c1C1C=CN=CN1C.Cl (stereo unspecified)"
  minimal effective dose / mg/kg: 30
- compound: "CCc1ccc(C2C=CN=CN2)s1.Cl (stereo unspecified)"
  minimal effective dose / mg/kg: 10
- compound: "Cc1sc2c(c1C1C=CN=CN1)CCCC2.Cl (stereo unspecified)"
  minimal effective dose / mg/kg: 10
- compound: "Cc1sc2ccccc2c1C1NC(N)=NC=C1Cl.Cl (stereo unspecified)"
  minimal effective dose / mg/kg: 30
- compound: "Cc1sc(C2C=CN=CN2)c(C)c1C.Cl (stereo unspecified)"
  minimal effective dose / mg/kg: 30

// Cc1sc2ccc(Cl)cc2c1C1C=CN=CN1.Cl (stereo unspecified) : minimal effective dose value = 3

###

- protocolText: Fraction unbound in human plasma at 5 uM by LC-MS/MS based equilibrium dialysis method
- Assay type: ADME, cell-free
propertyName: fraction unbound at 5 µM
Give the figure only, with no unit attached.

// Cc1sc2ccccc2c1[C@@H]1C=CN=CN1 : fraction unbound at 5 µM value = 0.3

###

- protocolText: Half life in mouse liver microsomes at 3 uM in presence of NADPH by LC-MS/MS analysis
- Assay type: ADME
propertyName: half-life at 3 µM
Please answer using a numeric value trailed by its unit.

// Cc1cc(C2C=CN=CN2)c(C)s1.Cl (racemic) : half-life at 3 µM value = 155 min

// Cc1sc2ccccc2c1[C@@H]1C=CN=CN1 : half-life at 3 µM value = 242 min

###

- testedOn: Cytochrome P450 2D6 (Homo sapiens)
- Sequence (P10635 whole entry): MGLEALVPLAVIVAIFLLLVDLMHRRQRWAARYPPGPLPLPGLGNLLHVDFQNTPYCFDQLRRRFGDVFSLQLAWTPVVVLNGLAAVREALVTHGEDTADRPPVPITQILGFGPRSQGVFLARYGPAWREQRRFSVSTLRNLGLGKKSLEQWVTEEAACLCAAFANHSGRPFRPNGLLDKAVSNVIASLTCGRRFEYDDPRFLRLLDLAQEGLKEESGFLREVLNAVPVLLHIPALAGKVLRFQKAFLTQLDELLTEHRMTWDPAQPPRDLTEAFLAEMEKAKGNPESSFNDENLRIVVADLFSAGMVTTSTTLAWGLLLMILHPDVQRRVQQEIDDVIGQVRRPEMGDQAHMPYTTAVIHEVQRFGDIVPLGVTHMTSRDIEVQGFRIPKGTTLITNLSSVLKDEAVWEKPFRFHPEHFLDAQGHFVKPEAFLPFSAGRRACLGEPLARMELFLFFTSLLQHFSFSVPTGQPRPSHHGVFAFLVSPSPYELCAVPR
propertyName: IC50 (µM)
Write down the numeric answer in µM and omit the unit.

- compound: "Cc1cc(C2C=CN=CN2)c(C)s1.Cl (racemic)"
  propertyName: "IC50"
  unitInfo: "µM"
  experimentalValue: 6.3

Kindly review the next compound as well.
Summary: Cc1sc2ccccc2c1[C@@H]1C=CN=CN1 , Cytochrome P450 2D6 (Homo sapiens), IC50 = 3.1

###

- protocolText: Half life in rat liver microsomes at 3 uM in presence of NADPH by LC-MS/MS analysis
- Type: ADME
Recorded measurements of half-life at 3 µM, one per entry
Please answer using a numeric value trailed by its unit.

- compound: "Cc1sc2ccccc2c1[C@@H]1C=CN=CN1"
  half-life at 3 µM: "29 min"

Kindly review the next compound as well.
// Cc1cc(C2C=CN=CN2)c(C)s1.Cl (racemic) : half-life at 3 µM value = 39 min

###

- testedOn: Cytochrome P450 2C9 (Homo sapiens, UniProt P11712)
- Sequence (P11712 whole entry): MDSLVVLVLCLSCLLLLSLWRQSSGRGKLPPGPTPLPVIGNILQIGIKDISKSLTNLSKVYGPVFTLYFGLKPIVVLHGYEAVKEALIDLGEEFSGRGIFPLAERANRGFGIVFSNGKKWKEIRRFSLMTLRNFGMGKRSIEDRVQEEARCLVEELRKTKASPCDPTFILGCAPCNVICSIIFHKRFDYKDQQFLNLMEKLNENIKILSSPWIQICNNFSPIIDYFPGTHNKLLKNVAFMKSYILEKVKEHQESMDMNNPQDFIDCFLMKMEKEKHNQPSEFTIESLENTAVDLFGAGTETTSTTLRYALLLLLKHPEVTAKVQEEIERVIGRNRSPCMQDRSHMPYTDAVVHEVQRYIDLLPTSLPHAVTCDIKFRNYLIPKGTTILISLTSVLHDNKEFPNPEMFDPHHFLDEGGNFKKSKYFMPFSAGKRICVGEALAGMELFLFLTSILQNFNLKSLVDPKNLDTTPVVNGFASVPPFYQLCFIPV
propertyName: IC50 (µM)
Write down the numeric answer in µM and omit the unit.

Summary: Cc1sc2ccccc2c1[C@@H]1C=CN=CN1 , Cytochrome P450 2C9 (Homo sapiens, UniProt P11712), IC50 = 6.9

###

- Test system: Mus musculus
- protocolText: Antipsychotic activity in ip dosed mouse administered 15 mins prior to testing by SmartCube automated system based method
- Format: functional
- conditionDetails: Mus musculus, ip; read-out: MED
propertyName: minimal effective dose (mg/kg)
Write down the numeric answer in mg/kg and omit the unit.

- compound: "Cc1sc2ccccc2c1C1NC=Nc2cc(F)ccc21.Cl (stereo not drawn)"
  minimal effective dose / mg/kg: 30
- compound: "Cc1sc2c(F)cccc2c1C1C=CN=CN1.Cl (stereo not drawn)"
  minimal effective dose / mg/kg: 10
- compound: "CC1=NC=CC(c2c(C)sc3ccccc23)N1.Cl (stereo not drawn)"
  minimal effective dose / mg/kg: 30
- compound: "CCc1cc(Br)c(C2C=CN=CN2)s1.Cl (stereo not drawn)"
  minimal effective dose / mg/kg: 30
- compound: "Cc1sc2cccc(F)c2c1C1C=CN=CN1.Cl (stereo not drawn)"
  minimal effective dose / mg/kg: 3

Kindly review the next compound as well.
// Cc1sc2c(Cl)cccc2c1C1C=CN=CN1.Cl (stereo not drawn) : minimal effective dose value = 30

###

- Test system: Mus musculus
- protocolText: Antipsychotic activity in mouse at 30 mg/kg, ip administered 15 mins prior to testing by SmartCube automated system based method relative to standard compound
- Assay type: functional
Active and inactive are the calls of the source. The calls are words filed in the database; no cut-off is given here.
propertyName: Activity

Solved cases (5 shown):
- compound: "Cc1cc(C2C=CN=CN2)c(C)s1.Cl (racemic)"
  Activity: "40%"
- compound: "Cc1csc(C2C=CN=CN2)c1C (centres undefined)"
  Activity: "Active"
- compound: "Cc1sc2ccccc2c1[C@@H]1C=CN=CN1"
  Activity: "Active"
- compound: "Fc1c(C2NC=Nc3ccccc32)sc2ccccc12 (centres undefined)"
  Activity: "Active"
- compound: "Brc1c(C2C=CN=CN2)sc2ccccc12 (centres undefined)"
  Activity: "Active"

Summary: Clc1c(C2C=CN=CN2)sc2ccccc12 (centres undefined) , Mus musculus, Activity = Active

Summary: CC1=CN=CNC1c1sc2ccccc2c1C (centres undefined) , Mus musculus, Activity = Active

Summary: Cc1c(C2C=CN=CN2)sc2ccccc12 (centres undefined) , Mus musculus, Activity = Active

Summary: CC1=NC=C(Cl)C(c2sc3ccccc3c2C)N1 (centres undefined) , Mus musculus, Activity = Active

###

- protocolText: Protein binding in rat plasma at 5 uM by LC-MS/MS based equilibrium dialysis method
- Type: ADME, cell-free
- conditionDetails: read-out: PPB (converted)
propertyName: fraction unbound at 5 µM
Give the figure only, with no unit attached.

// Cc1cc(C2C=CN=CN2)c(C)s1.Cl (racemic) : fraction unbound at 5 µM value = 0.3

###

- System: Mus musculus
- protocolText: Antipsychotic activity in ip dosed mouse administered 15 mins prior to testing by SmartCube automated system based method
- Type: functional
- conditionDetails: Mus musculus, ip; read-out: MED
Recorded measurements of minimal effective dose, one per entry
Please answer using a numeric value trailed by its unit.

- molecule: "Cc1sc2c(c1C1C=CN=CN1)CCC2.Cl (configuration not stated)"
  testedOn: "Mus musculus"
  propertyName: "minimal effective dose"
  experimentalValue: "10 mg/kg"
- molecule: "Cc1c(F)sc(C2C=CN=CN2)c1C.Cl (configuration not stated)"
  testedOn: "Mus musculus"
  propertyName: "minimal effective dose"
  experimentalValue: "10 mg/kg"
- molecule: "Cc1sc2ccccc2c1C1C=CN=CN1.Cl (configuration not stated)"
  testedOn: "Mus musculus"
  propertyName: "minimal effective dose"
  experimentalValue: "3 mg/kg"

Summary: Cl.Fc1sc2ccccc2c1C1NC=NC=C1Cl (configuration not stated) , Mus musculus, minimal effective dose = 30 mg/kg

Summary: Cl.Fc1ccc(-c2ccc(C3C=CN=CN3)s2)cc1 (configuration not stated) , Mus musculus, minimal effective dose = 3 mg/kg

Summary: Cc1sc2cc(Cl)ccc2c1C1C=CN=CN1.Cl (configuration not stated) , Mus musculus, minimal effective dose = 30 mg/kg

Summary: CC1=CN=CNC1c1c(C)sc2ccccc12.Cl (configuration not stated) , Mus musculus, minimal effective dose = 30 mg/kg
